TARGET OR TEST SYSTEM: ProfilerPro Kinase Selectivity Assay Kit kinases (Homo sapiens)
Sequence (P06239 2-509 limits assumed): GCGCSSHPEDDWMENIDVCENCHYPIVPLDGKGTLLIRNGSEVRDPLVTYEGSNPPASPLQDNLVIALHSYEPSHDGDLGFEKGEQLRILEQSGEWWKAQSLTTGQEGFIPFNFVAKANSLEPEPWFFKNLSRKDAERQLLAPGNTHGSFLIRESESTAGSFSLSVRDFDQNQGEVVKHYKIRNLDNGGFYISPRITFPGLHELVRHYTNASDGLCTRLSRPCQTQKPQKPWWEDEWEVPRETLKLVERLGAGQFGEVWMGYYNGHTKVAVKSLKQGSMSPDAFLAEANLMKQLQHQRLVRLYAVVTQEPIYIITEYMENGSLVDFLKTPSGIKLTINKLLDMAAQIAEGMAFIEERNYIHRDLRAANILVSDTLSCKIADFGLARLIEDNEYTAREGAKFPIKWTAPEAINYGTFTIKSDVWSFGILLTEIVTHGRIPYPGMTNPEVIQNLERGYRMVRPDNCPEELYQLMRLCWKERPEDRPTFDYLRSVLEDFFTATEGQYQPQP
Type: biochemical
SETUP CONDITIONS: LCK; 1 μM compound concentration
Exercise: state measured POC (Percent of control) LCK for each of the molecules provided.
Numbers only, in POC.

Provide POC (Percent of control) LCK values for the following items, in order.
1. COc1ccc(Nc2ncc(CN3CCN(C(C)=O)CC3)cc2-c2nc(C)nc3[nH]cnc23)cn1
2. Cc1nc(N)nc(-c2cc(CN3CCN(S(C)(=O)=O)CC3)cnc2Nc2cccc(O)c2)n1
3. COc1ccc(Nc2ncccc2-c2nc(C)nc3[nH]cnc23)cn1
4. CCc1cnc(Nc2ccc(OC)nc2)c(-c2nc(C)nc3[nH]cnc23)c1
5. Cc1nc(N)nc(-c2cccnc2Nc2cccc(O)c2)n1

Result block:
[101, 102, 98, 98, 97]

Please state, for each entry, its recorded POC (Percent of control) LCK.
1. COc1ccc(Nc2ncccc2-c2ncnc3[nH]cnc23)cn1
2. Cc1nc(-c2cccnc2Nc2cccc3[nH]ncc23)c2nc[nH]c2n1
3. c1cnc(Nc2cccc3[nH]ccc23)c(-c2ncnc3[nH]cnc23)c1
4. Cc1nc(N)cc(-c2cccnc2Nc2cccc3[nH]ncc23)n1
5. COc1ccc(Nc2ncc(Cc3ccc(S(C)(=O)=O)cc3)cc2-c2nc(C)nc3[nH]cnc23)cn1
6. Cc1cnc(Nc2cccc3[nH]ccc23)c(-c2nc(C)nc(N)n2)c1
7. Cc1cnc(Nc2cccc3[nH]ncc23)c(-c2nc(C)nc(N)n2)c1
8. Cc1nc(N)nc(-c2cccnc2Nc2cccc3[nH]ccc23)n1

Result block:
[101, 96, 70, 101, 92, 96, 61, 97]

So for `c1cnc(Nc2cccc3[nH]ncc23)c(-c2ncnc3[nH]cnc23)c1` , the logged POC (Percent of control) LCK turned out to be 72
